study system: T7 DdRp WT (Escherichia phage T7, UniProt P00573)
Sequence (P00573 whole entry, looked up): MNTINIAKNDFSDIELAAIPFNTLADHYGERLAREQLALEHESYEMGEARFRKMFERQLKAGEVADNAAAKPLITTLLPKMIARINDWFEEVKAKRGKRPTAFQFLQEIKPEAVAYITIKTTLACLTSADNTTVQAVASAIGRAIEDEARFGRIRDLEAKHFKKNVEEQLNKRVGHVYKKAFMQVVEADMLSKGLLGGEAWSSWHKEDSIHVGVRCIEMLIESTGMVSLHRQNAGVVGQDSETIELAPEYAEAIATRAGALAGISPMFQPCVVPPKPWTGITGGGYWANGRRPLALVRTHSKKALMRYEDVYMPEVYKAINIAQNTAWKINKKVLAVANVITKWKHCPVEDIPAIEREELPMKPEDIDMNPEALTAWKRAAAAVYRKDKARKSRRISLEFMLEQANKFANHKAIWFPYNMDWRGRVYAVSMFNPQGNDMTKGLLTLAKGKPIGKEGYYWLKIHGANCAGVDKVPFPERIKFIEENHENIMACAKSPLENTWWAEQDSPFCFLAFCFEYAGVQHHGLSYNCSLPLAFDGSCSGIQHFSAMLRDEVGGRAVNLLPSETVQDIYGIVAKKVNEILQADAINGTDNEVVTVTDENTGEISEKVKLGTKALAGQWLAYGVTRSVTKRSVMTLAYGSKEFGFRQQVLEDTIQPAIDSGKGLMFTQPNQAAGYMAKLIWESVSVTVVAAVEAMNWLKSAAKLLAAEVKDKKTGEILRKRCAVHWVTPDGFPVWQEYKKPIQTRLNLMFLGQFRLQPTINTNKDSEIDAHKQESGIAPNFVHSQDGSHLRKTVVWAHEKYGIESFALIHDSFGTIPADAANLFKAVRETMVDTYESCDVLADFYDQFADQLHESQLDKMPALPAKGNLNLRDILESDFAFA
Format: biochemical
experimental conditions: read-out: Kd,app (apparent dissociation constant for nucleotide); pH 7.5
measured metric: Kd (µM)

In [3]: df
Out[3]:
                               given_smiles  measured_metric  reported_measurement
0  Nc1ncnc2c1ncn2[C@@H]1O[C@H](COP(=O)(O)OP(=O)(O)OP(=O)(O)O)[C@@H](O)[C@H]1O               Kd                   300

---

study system: PV RdRp WT (Poliovirus type 1)
Sequence (P03300 1749-2209 limits assumed): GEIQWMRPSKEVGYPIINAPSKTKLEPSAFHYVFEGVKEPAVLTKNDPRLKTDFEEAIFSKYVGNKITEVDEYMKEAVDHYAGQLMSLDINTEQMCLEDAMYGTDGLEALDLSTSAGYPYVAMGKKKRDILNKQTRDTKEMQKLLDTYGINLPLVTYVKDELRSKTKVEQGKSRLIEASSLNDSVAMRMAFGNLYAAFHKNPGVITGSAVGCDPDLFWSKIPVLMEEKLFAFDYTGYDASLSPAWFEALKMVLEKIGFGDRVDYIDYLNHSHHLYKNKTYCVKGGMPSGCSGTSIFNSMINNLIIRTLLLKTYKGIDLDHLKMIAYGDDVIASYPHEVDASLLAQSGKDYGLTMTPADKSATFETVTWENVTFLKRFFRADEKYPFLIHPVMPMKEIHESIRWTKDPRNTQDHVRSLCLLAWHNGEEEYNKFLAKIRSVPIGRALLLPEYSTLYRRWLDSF
pKd: −log10 of the molar value.
measured metric: pKd

>>> df
                               given_smiles                    study_system  reported_measurement
0  Nc1ncnc2c1ncn2[C@@H]1O[C@H](COP(=O)(O)OP(=O)(O)OP(=O)(O)O)[C@@H](O)[C@H]1O  PV RdRp WT (Poliovirus type 1)                  3.70

---

study system: T7 DdRp K631L (Escherichia phage T7, UniProt P00573, K631L)
Sequence (P00573 whole entry K631L, looked up): as the sequence (P00573 whole entry, looked up) above, with K631L counted along it
experimental conditions: read-out: Kd,app (apparent dissociation constant for nucleotide)
pKd: −log10 of the molar value.
measured metric: pKd

                               given_smiles  reported_measurement
0  Nc1ncnc2c1ncn2[C@@H]1O[C@H](COP(=O)(O)OP(=O)(O)OP(=O)(O)O)[C@@H](O)[C@H]1O                  1.30
